Sourced from ChEMBL document CHEMBL4311962

# Experiment: Cytotoxicity against CHO cells assessed as reduction in cell viability incubated for 72 hrs by MTT assay
# Type: cell-based, Cricetulus griseus
# Measurement Setup: chinese hamster
For each record, write down the corresponding CC50 at 72 h.
Please respond with the number in µM and leave the unit unwritten.

Looking for the measured CC50 at 72 h of CCOC(=O)c1c(-c2ccc(F)cc2)oc2ccc(OCCCCCCN3C(=O)C(=O)c4cc(OC)ccc43)cc12 , can you help?
256

# iterate: NNC(=O)c1ccncc1 [ISONIAZID]
256

Item: CCOC(=O)c1c(-c2ccc(F)cc2)oc2ccc(OCCN3C(=O)C(=O)c4cc(OC)ccc43)cc12
512

Now try CCOC(=O)c1c(-c2ccc(F)cc2)oc2ccc(OCCCN3C(=O)C(=O)c4ccccc43)cc12 .
256

Proceed to CCOC(=O)c1c(-c2ccc(OC)cc2)oc2ccc(OCCCCN3C(=O)C(=O)c4ccccc43)cc12
256

// repeat for CCOC(=O)c1c(-c2ccc(F)cc2)oc2ccc(OCCCN3C(=O)/C(=N/O)c4ccccc43)cc12 and report
256

Queued: CCOC(=O)c1c(-c2ccc(F)cc2)oc2ccc(OCCN3C(=O)C(=O)c4cc(F)ccc43)cc12
64

Another compound to check: CCOC(=O)c1c(-c2ccc(F)cc2)oc2ccc(OCCN3C(=O)C(=O)c4ccccc43)cc12
128

Also CCOC(=O)c1c(-c2ccccc2)oc2ccc(OCCCN3C(=O)/C(=N/O)c4ccccc43)cc12 , if possible.
512

Cool, now CCOC(=O)c1c(-c2ccc(OC)cc2)oc2ccc(OCCCN3C(=O)C(=O)c4cc(F)ccc43)cc12
64

Subsequent entry: CO[C@H]1/C=C/O[C@@]2(C)Oc3c(C)c(O)c4c(O)c(c(/C=N/N5CCN(C)CC5)c(O)c4c3C2=O)NC(=O)/C(C)=C\C=C\[C@H](C)[C@H](O)[C@@H](C)[C@@H](O)[C@@H](C)[C@H](OC(C)=O)[C@@H]1C [RIFAMPIN]
512

Try this compound next: CCOC(=O)c1c(-c2ccccc2)oc2ccc(OCCCN3C(=O)C(=O)c4ccccc43)cc12
256

Likewise for CCOC(=O)c1c(-c2ccccc2)oc2ccc(OCCN3C(=O)C(=O)c4cc(F)ccc43)cc12 ?
64

// next record CCOC(=O)c1c(-c2ccc(OC)cc2)oc2ccc(OCCCCCN3C(=O)C(=O)c4ccccc43)cc12
128

Another compound to look at: CCOC(=O)c1c(-c2ccc(F)cc2)oc2ccc(OCCCCCCN3C(=O)/C(=N\O)c4cc(OC)ccc43)cc12
512

Try CCOC(=O)c1c(-c2ccccc2)oc2ccc(OCCCN3C(=O)C(=O)c4cc(OC)ccc43)cc12 next.
512

Next compound up: CCOC(=O)c1c(-c2ccc(F)cc2)oc2ccc(OCCCCCCN3C(=O)/C(=N/OC)c4ccccc43)cc12
128

Check CCOC(=O)c1c(-c2ccc(OC)cc2)oc2ccc(OCCCCCCN3C(=O)/C(=N/NC(N)=S)c4cc(F)ccc43)cc12 too.
128

Follow-up item: CCO/N=C1\C(=O)N(CCCCCCOc2ccc3oc(-c4ccc(F)cc4)c(C(=O)OCC)c3c2)c2ccc(OC)cc21
256

Also CCOC(=O)c1c(-c2ccccc2)oc2ccc(OCCCN3C(=O)/C(=N/O)c4cc(OC)ccc43)cc12 ?
512

Record: CCOC(=O)c1c(-c2ccccc2)oc2ccc(OCCCCCCN3C(=O)C(=O)c4ccccc43)cc12
128
